- System: THP-1
- Method: CD86 surface expression induction over DMSO control (% over DMSO); higher = stronger dendritic cell activation
- Condition Description: exposure time: 24 h
Would you mind labelling by CD86 surface expression induction? At or over 10 is TRUE, under is FALSE.

For this compound, is measured CD86 surface expression induction 10 or higher? C=C1CC[C@H](O)C/C1=C/C=C1\CCC[C@]2(C)[C@@H]([C@H](C)/C=C/[C@H](C)C(C)C)CC[C@@H]12 [Ergocalciferol*] (100 µM)
TRUE

For this compound, is measured CD86 surface expression induction 10 or higher? CC(C)(C)OC(=O)c1ccc(O)cc1 [tert-Butyl 4-hydroxybenzoate] (100 µM)
FALSE

For this compound, is measured CD86 surface expression induction 10 or higher? COc1cc(/C=C2\CCC/C(=C\c3ccc(O)c(OC)c3)C2=O)ccc1O [Cyclovalone] (10 µM)
FALSE

For this compound, is measured CD86 surface expression induction 10 or higher? CCCCCCCCCCC=CC1CC(=O)OC1=O (configuration not stated) [3-(Dodecenyl)dihydro-2,5-furandione] (200 µM)
FALSE

For this compound, is measured CD86 surface expression induction 10 or higher? Nc1cc(Cl)c(O)c(Cl)c1 [4-Amino-2,6-dichlorophenol] (100 µM)
FALSE

For this compound, is measured CD86 surface expression induction 10 or higher? COc1cc(C(C)(C)C)c(O)c(C(C)(C)C)c1 [2,6-Di-tert-butyl-4-methoxyphenol] (200 µM)
TRUE

For this compound, is measured CD86 surface expression induction 10 or higher? O=C(O)c1cccnc1Nc1cccc(C(F)(F)F)c1 [Niflumic acid] (100 µM)
FALSE

For this compound, is measured CD86 surface expression induction 10 or higher? CO[C@@H]1[C@H](OC(=O)/C=C/C=C/C=C/C=C/C(=O)O)CC[C@]2(CO2)[C@H]1[C@@]1(C)O[C@@H]1CC=C(C)C [Fumagillin] (100 µM)
FALSE

For this compound, is measured CD86 surface expression induction 10 or higher? CCCCc1ccc2[nH]c(NC(=O)OC)nc2c1 [Parbendazole*] (200 µM)
TRUE

For this compound, is measured CD86 surface expression induction 10 or higher? NC(=S)NC(N)=S [2,4-Dithiobiuret] (200 µM)
TRUE

For this compound, is measured CD86 surface expression induction 10 or higher? Cc1c2ccccc2c(C)c2c1ccc1ccccc12 [7,12-Dimethylbenzanthracene] (10 µM)
TRUE

For this compound, is measured CD86 surface expression induction 10 or higher? Cc1ccc2c(c1[N+](=O)[O-])C(=O)c1ccccc1C2=O [2-Methyl-1-nitroanthraquinone] (10 µM)
FALSE

For this compound, is measured CD86 surface expression induction 10 or higher? O=C1OC(OC(=O)c2cccnc2Nc2cccc(C(F)(F)F)c2)c2ccccc21 (configuration not stated) [Talniflumate] (100 µM)
FALSE

For this compound, is measured CD86 surface expression induction 10 or higher? O=C(O)Cc1cc(I)c(Oc2cc(I)c(O)c(I)c2)c(I)c1 [Tetrac] (100 µM)
TRUE

For this compound, is measured CD86 surface expression induction 10 or higher? CC(C)(C)c1ccc(S)cc1 [4-tert-Butylbenzenethiol] (200 µM)
TRUE

For this compound, is measured CD86 surface expression induction 10 or higher? CN(C)c1ccc(SC#N)cc1 [4-(Dimethylamino)phenylthiocyanate] (10 µM)
FALSE

For this compound, is measured CD86 surface expression induction 10 or higher? CCCCNC(=S)NCCCC [N,N'-Dibutylthiourea] (10 µM)
FALSE
